# Assayed System: human KHK-A (Homo sapiens (Human), UniProt P50053)
# Sequence (P50053 other isoform, or with tags, fused parts or gaps): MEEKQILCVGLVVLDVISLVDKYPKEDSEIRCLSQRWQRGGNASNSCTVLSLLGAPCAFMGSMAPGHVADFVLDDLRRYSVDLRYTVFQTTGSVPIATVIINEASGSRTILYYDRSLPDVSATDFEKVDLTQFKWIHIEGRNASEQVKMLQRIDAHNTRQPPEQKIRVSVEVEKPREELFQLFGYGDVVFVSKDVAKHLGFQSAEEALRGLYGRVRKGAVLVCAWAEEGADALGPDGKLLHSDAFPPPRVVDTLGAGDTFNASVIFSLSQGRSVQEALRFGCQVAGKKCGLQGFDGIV
# Test Details: KHK Biochemical Assay (IC50), ADP-Glo, KHK-A
# Test Conditions: ADP-Glo; average of at least two separate assays
pIC50: −log10 of the molar value.
Parameter: pIC50. Scope: all listed entries.
Measured Attribute: pIC50

molecule=C[C@H]1[C@H](O)CN1c1nc2c(c(-c3ccc(C(N)=O)c(F)c3)n1)CCC2 assayed_system="human KHK-A (Homo sapiens (Human), UniProt P50053)" result_operator== measured=7.06
molecule=C[C@H]1CCN1c1nc2c(c(-c3ccc(C4(NC(=O)OC(C)(C)C)CCC4)cc3)n1)CCC2 assayed_system="human KHK-A (Homo sapiens (Human), UniProt P50053)" result_operator=< measured=5.30
molecule=C[C@H]1CCN1c1nc2c(c(-c3cccc(CS(C)(=O)=O)c3)n1)CCC2 assayed_system="human KHK-A (Homo sapiens (Human), UniProt P50053)" result_operator== measured=7.12
molecule="COc1ccc(-c2nc(N3CC[C@@H]3C)nc3c2CCC3)cc1S(=N)(=O)c1ccc(C#N)c(Cl)c1 (stereo partly shown)" assayed_system="human KHK-A (Homo sapiens (Human), UniProt P50053)" result_operator== measured=7.33
molecule="C[C@H]1CCN1c1nc2c(c(-c3ccc4c(c3)C3(CCC4)CC3C(=O)O)n1)CCC2 (stereo partly shown)" assayed_system="human KHK-A (Homo sapiens (Human), UniProt P50053)" result_operator== measured=7.08
molecule=C[C@H]1CCN1c1nc2c(c(-c3cc4c(s3)C(=O)NC(C)(C)N4)n1)CCC2 assayed_system="human KHK-A (Homo sapiens (Human), UniProt P50053)" result_operator== measured=7.72
molecule=C[C@H]1CCN1c1nc2c(c(-c3ccc(-c4noc(=O)[nH]4)cc3)n1)CCC2 assayed_system="human KHK-A (Homo sapiens (Human), UniProt P50053)" result_operator== measured=7.30
molecule=C[C@H]1CCN1c1nc2c(c(-c3ccc4ncn(C)c4c3)n1)CCC2 assayed_system="human KHK-A (Homo sapiens (Human), UniProt P50053)" result_operator== measured=7.14
molecule=Cc1cc(-c2nc(N3CC[C@@H]3C)nc3c2CCC3)on1 assayed_system="human KHK-A (Homo sapiens (Human), UniProt P50053)" result_operator== measured=6.64
molecule=C[C@H]1CCN1c1nc2c(c(-c3ccc(C(=O)Nc4ccccc4)cc3)n1)CCC2 assayed_system="human KHK-A (Homo sapiens (Human), UniProt P50053)" result_operator== measured=5.68
molecule=C[C@H]1CCN1c1nc2c(c(-c3nc4ccccc4n3C)n1)CCC2 assayed_system="human KHK-A (Homo sapiens (Human), UniProt P50053)" result_operator== measured=5.66
molecule="C[C@H]1[C@H](O)CN1c1nc(-c2ccc3c(c2)OCC32NC(=O)N(C)C2=O)c2c(n1)C(F)(F)CC2 (stereo partly shown)" assayed_system="human KHK-A (Homo sapiens (Human), UniProt P50053)" result_operator== measured=7.84
molecule="C[C@H]1CCN1c1nc2c(c(-c3ccc4c(c3)CCCC4NS(C)(=O)=O)n1)CCC2 (stereo partly shown)" assayed_system="human KHK-A (Homo sapiens (Human), UniProt P50053)" result_operator== measured=6.85
molecule="C[C@H]1CCN1c1nc2c(c(-c3cccc(S(=N)(=O)CC(=O)N4CCC4)c3)n1)CCC2 (stereo partly shown)" assayed_system="human KHK-A (Homo sapiens (Human), UniProt P50053)" result_operator== measured=6.73
molecule="C[C@H]1CCN1c1nc2c(c(-c3ccc4c(c3)CC(CC(=O)O)C4)n1)CCC2 (stereo partly shown)" assayed_system="human KHK-A (Homo sapiens (Human), UniProt P50053)" result_operator== measured=6.80
molecule=C[C@H]1CCN1c1nc(-c2ccccc2)c2cccnc2n1 assayed_system="human KHK-A (Homo sapiens (Human), UniProt P50053)" result_operator== measured=4.98
molecule=C[C@H]1CCN1c1nc2c(c(-c3cccc(CN4CCOCC4)c3)n1)CCC2 assayed_system="human KHK-A (Homo sapiens (Human), UniProt P50053)" result_operator== measured=7.10
molecule=C[C@H]1[C@H](O)CN1c1nc2c(c(-c3ccc(-c4ncc[nH]4)cc3)n1)CCC2 assayed_system="human KHK-A (Homo sapiens (Human), UniProt P50053)" result_operator== measured=7.13
molecule=C[C@H]1CCN1c1nc2c(c(-c3ccc4[nH]c(=O)n(C)c4c3)n1)CCC2 assayed_system="human KHK-A (Homo sapiens (Human), UniProt P50053)" result_operator== measured=6.90
molecule=Cc1noc(C)c1S(=O)(=O)Nc1cccc(-c2nc(N3CC[C@@H]3C)nc3c2CCC3)c1 assayed_system="human KHK-A (Homo sapiens (Human), UniProt P50053)" result_operator== measured=5.94
molecule=C[C@H]1CCN1c1nc2c(c(-c3ccc(OC(F)(F)F)c(S(N)(=O)=O)c3)n1)CCC2 assayed_system="human KHK-A (Homo sapiens (Human), UniProt P50053)" result_operator== measured=6.39
molecule=C[C@H]1CCN1c1nc2c(c(-c3cccc(CCC(N)=O)c3)n1)CCC2 assayed_system="human KHK-A (Homo sapiens (Human), UniProt P50053)" result_operator== measured=7.26
molecule=C[C@H]1[C@H](O)CN1c1nc2c(c(-c3ccc(CN)cc3)n1)CCC2 assayed_system="human KHK-A (Homo sapiens (Human), UniProt P50053)" result_operator== measured=8.01
molecule="C[C@H]1CCN1c1nc2c(c(-c3cccc([C@H]4C[C@@H]4C(=O)O)c3)n1)CCC2 (single isomer, unassigned)" assayed_system="human KHK-A (Homo sapiens (Human), UniProt P50053)" result_operator== measured=8.22
molecule=C[C@H]1CCN1c1nc2c(c(-c3cccc(CC(N)=O)c3)n1)CCC2 assayed_system="human KHK-A (Homo sapiens (Human), UniProt P50053)" result_operator== measured=6.83

Cited source: patent US12410160B2
